target_system: BoGT6a (Bacteroides ovatus)
reported_metric: Kd

Q: Record lookup: for BoGT6a (Bacteroides ovatus), what Kd belongs to CC(=O)N[C@H]1[C@@H](OP(=O)(O)OP(=O)(O)OC[C@H]2O[C@@H](n3ccc(=O)[nH]c3=O)[C@H](O)[C@@H]2O)O[C@H](CO)[C@H](O)[C@@H]1O ?
Ans: 59 µM
